B1: library; numbered along this chain (parent)
chain: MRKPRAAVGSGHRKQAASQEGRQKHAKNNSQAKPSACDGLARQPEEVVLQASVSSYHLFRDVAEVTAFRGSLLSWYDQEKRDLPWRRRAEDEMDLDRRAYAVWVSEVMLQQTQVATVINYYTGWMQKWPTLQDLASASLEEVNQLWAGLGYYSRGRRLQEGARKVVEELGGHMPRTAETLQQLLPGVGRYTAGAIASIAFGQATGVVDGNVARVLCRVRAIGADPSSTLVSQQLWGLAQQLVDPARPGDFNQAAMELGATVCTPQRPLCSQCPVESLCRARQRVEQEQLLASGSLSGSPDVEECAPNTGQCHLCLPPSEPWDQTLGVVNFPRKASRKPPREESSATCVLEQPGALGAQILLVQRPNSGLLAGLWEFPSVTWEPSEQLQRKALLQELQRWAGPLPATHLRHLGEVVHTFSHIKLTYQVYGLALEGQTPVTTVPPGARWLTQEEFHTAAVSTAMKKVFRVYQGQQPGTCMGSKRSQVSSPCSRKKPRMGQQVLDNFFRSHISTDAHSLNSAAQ

- Variants of: B1
- test.method.notes: 8OG:A repair function score (normalized; synonymous = 0, nonsense = -1) (normalized log-likelihood score); higher = more repair activity (WT-like);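 note: cells sorted at 72 h after reporter transfection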
- condition.parameters: with 8OG:A DNA repair reporter (GFP) in HEK-293 MUTYH KO cells
We use -0.03 as the dividing line for 8OG:A repair function score: on or above the line is rule met, below is rule not met.

INSERT INTO measurements (mutant_id, qualitative_label) VALUES
  ('E413R', 'rule not met');

Q: Does 8OG:A repair function score meet or surpass -0.03 for `Q132W` ?
Ans: rule not met

Q: Does 8OG:A repair function score meet or surpass -0.03 for `T460R` ?
Ans: rule not met
